Molecular target: hGWL^FL (Homo sapiens)
Construct: N-terminally FLAG-tagged full-length human GWL; protein captured on anti-Flag M2 beads
Assay: Immunoprecipitation kinase assay with Flag-tagged hGWL^FL (p-ENSA western)
Conditions: immunoprecipitated hGWL^FL; read-out: EC50 GWL^FL
Method: 500 mM NaCl, and 0.5 mM TCEP) diluted to desired concentration or immunoprecipitated hGWL on beads with ultra-pure ATP [Promega, 25 µM] and His-tagged substrate  α-endosulfine (ENSA, 2 µM) in kinase assay buffer (50 mM Tris-HCl pH 7.5, 0.5 mM EGTA, 150 mM NaCl, 0.1% v/v NP-40 and 15 mM MgCl2). The […] (dithiothreitol), 50% v/v Glycerol, 10% v/v SDS (sodium dodecyl sulphate), and 0.25M Tris-HCl pH 6.8) or Kinase-Glo Max reagent [Promega]. […]
ENDPOINT_LABEL: pEC50
Keep it numeric: pEC50 is minus log10 of the concentration in mol/L.

Item under review: Clc1ccc(Nc2cccc(-c3cn[nH]c3)c2)cc1 . Reported pEC50?
5.31

* * *

target: hGWL-KinDom (Homo sapiens); construct: that encoded amino acids (aa) 1-194 + ‘RTFC’ + 740-879 of hGWL; GST (rhinovirus 3C-protease cleavable) (N, cleaved yes); made in house; host or cells: E. coli Rosetta2(DE3); assay: Inhibitor screen of pooled library with hGWL-KinDom (Kinase-Glo Max); format: biochemical; conditions: rank by potency in the screen
Please provide measured Rank in inhibitor screen for the entries that follow.
I'd appreciate a reply containing only the number, no unit.

Entry under review: CN(C)CC#Cc1cccc(C(=O)c2cnn(-c3ccc(F)cc3)c2N)c1 . Reported Rank in inhibitor screen?
3

For COc1cc[nH]c1/C=C1\C(=O)Nc2ccc(F)c(C#CC3(O)CCNCC3)c21 , what is its reported Rank in inhibitor screen?
1

# get_value(readout='Rank in inhibitor screen', item= CNC(C#Cc1c(F)ccc2c1C(=Cc1[nH]ccc1OC)C(=O)N2)CO (stereo not shown) )
5

I am curious: what Rank in inhibitor screen value has been reported for CCN(CC)Cc1ccc(Nc2nccc(-c3cnn4ncccc34)n2)cc1 ?
8

* * *

The reader will find pIC50 measurements below, all made with hGWL-KinDom (Homo sapiens, UniProt Q96GX5).
Give only the number. pIC50 is defined as minus log10 of concentration in molar units.

Look up pIC50 for this compound: CN(C)CC#Cc1cccc(C(=O)c2cnn(-c3ccc(F)cc3)c2N)c1 [GRI-3]
3.96

Query: pIC50; subject: NC[C@@](O)(c1ccc(Cl)cc1)c1ccc(-c2cn[nH]c2)cc1 [AT13148, reference compound]
6.90

* * *

target: PKA (Homo sapiens, UniProt P17612); construct: purchased Promega; test: PKA kinase assay (Promega); assay type: biochemical; settings: refers to Table 2
ENDPOINT_LABEL: IC50

Bench note: what IC50 did NC[C@@](O)(c1ccc(Cl)cc1)c1ccc(-c2cn[nH]c2)cc1 [AT13148, reference compound] show?
~11 nM

* * *

molecular target: hGWL-KinDom (Homo sapiens, UniProt Q96GX5); construct: that encoded amino acids (aa) 1-194 + ‘RTFC’ + 740-879 of hGWL; GST (rhinovirus 3C-protease cleavable) (N, cleaved yes); made in house; host or cells: E. coli Rosetta2(DE3); assay: Inhibitor screen of pooled library with hGWL-KinDom (Kinase-Glo Max); assay type: biochemical; details: 10 μM screening concentration, ATP concentration = 45 μM
ENDPOINT_LABEL: inhibition at 10 µM (%)
Give just the numeric value; % need not be written.

Entry CCN(CC)Cc1ccc(Nc2nccc(-c3cnn4ncccc34)n2)cc1 has what inhibition at 10 µM?
30.1

Bench note: what inhibition at 10 µM did CN(C)CC#Cc1cccc(C(=O)c2cnn(-c3ccc(F)cc3)c2N)c1 show?
39.6

Requested read-out: inhibition at 10 µM. Entry: COc1cc[nH]c1/C=C1\C(=O)Nc2ccc(F)c(C#CC3(O)CCNCC3)c21
67.6

Record request: inhibition at 10 µM value, item CNC(C#Cc1c(F)ccc2c1C(=Cc1[nH]ccc1OC)C(=O)N2)CO (stereo not shown)
37

* * *

Hi there, I'd appreciate the recorded IC50 for every entry that follows.
Target: ROCK1 (Homo sapiens)
Construct: purchased Promega
Sequence (Q13464 whole entry): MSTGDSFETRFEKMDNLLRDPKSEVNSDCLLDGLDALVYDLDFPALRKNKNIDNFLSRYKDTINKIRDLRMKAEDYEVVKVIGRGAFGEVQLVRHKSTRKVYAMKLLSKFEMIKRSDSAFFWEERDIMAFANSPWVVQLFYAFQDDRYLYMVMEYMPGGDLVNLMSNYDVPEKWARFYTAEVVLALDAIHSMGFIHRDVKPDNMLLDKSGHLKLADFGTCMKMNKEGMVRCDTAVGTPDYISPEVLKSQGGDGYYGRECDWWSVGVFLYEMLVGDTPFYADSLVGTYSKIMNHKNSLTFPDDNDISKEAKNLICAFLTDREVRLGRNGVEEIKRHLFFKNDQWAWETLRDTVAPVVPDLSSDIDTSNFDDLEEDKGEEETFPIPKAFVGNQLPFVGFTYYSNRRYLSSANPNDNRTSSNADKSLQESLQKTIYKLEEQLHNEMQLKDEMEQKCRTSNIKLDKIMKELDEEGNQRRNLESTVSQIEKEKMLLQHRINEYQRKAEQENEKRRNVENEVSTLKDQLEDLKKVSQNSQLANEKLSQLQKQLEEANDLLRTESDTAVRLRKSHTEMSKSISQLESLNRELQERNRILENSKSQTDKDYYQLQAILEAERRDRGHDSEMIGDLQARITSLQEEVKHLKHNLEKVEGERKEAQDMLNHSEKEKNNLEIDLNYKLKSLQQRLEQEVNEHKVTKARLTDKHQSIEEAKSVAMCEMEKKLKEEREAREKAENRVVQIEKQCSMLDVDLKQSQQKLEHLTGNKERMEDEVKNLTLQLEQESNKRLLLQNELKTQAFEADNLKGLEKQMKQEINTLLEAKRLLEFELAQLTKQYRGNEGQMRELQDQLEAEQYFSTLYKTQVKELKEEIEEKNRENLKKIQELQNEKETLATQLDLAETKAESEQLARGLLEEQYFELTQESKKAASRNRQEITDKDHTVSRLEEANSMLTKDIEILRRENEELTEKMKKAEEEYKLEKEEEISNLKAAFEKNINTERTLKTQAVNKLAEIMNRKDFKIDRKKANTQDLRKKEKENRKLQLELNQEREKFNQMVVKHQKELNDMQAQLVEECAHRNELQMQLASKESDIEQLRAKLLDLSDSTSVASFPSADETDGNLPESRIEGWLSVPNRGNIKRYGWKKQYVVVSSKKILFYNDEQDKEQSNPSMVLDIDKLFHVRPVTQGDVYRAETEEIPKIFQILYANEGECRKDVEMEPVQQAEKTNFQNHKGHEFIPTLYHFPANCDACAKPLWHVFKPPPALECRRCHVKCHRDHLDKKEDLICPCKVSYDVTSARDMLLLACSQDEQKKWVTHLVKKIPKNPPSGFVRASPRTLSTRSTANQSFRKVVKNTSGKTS
Assay: ROCK1 kinase assay (Promega)
Assay type: biochemical
Details: ± S.D.
Procedure: hGWLFL, 100 µl of lysate was diluted 5-fold with IP buffer and combined with 3 µl anti-Flag M2 magnetic Dynabeads [Sigma-Aldrich] overnight at 4 °C. […] The reaction was stopped by adding SDS loading buffer and analysed by western blot: p-ENSA and GWL levels were detected using the anti-phospho(Ser67)-ENSA and anti-MASTL(GWL, Prestige) antibodies. Activity was measured as the p-ENSA/GWL ratio and % kinase activity was normalised to the DMSO control. […]
Give a bare numeral; the unit µM is implied.

Could you tell me which IC50 is on file for Clc1ccc(Nc2cccc(-c3cn[nH]c3)c2)cc1 [GKI-1] ?
11.3

Given the entry NC[C@@](O)(c1ccc(Cl)cc1)c1ccc(-c2cn[nH]c2)cc1 [AT13148, reference compound] , report its measured IC50.
0.0114

Returns the measured IC50 for the input compound. Input: CCN(CC)Cc1ccc(Nc2nccc(-c3cnn4ncccc34)n2)cc1 [GRI-4]
21.6

* * *

Target: UniProtKB Q96GX5
Sequence (Q96GX5 1-879): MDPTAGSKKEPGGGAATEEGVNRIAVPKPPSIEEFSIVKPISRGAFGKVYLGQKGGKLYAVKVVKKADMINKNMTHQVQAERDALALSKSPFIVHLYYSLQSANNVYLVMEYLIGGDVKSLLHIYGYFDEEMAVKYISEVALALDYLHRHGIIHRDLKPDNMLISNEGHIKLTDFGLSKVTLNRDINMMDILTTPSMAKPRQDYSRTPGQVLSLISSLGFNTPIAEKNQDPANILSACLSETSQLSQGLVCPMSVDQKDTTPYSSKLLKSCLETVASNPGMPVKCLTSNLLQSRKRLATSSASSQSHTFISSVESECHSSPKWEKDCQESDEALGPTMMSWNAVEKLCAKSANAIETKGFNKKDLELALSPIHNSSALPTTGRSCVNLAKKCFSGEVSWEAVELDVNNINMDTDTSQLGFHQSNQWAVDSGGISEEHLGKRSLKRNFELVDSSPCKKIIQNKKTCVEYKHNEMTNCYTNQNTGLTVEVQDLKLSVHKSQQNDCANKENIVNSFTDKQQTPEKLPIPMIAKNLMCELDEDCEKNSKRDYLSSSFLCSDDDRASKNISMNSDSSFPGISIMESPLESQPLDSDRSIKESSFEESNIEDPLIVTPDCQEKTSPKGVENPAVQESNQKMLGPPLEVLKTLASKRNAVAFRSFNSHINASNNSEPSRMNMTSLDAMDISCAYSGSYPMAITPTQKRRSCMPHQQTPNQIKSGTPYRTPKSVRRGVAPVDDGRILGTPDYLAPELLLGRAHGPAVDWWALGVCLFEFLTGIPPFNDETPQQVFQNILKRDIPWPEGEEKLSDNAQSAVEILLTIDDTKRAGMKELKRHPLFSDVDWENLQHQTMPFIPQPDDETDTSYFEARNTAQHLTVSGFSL
ENDPOINT_LABEL: IC50 (µM)
I only need the number, in µM, no unit after it.

Value lookup for IC50; key = NC[C@@](O)(c1ccc(Cl)cc1)c1ccc(-c2cn[nH]c2)cc1 [AT13148, reference compound]
5.9

* * *

Biological target: ROCK1 (Homo sapiens)
Construct: purchased Promega
Test: ROCK1 kinase assay (Promega)
Type: biochemical
Settings: refers to Table 2
Experimental: hGWLFL, 100 µl of lysate was diluted 5-fold with IP buffer and combined with 3 µl anti-Flag M2 magnetic Dynabeads [Sigma-Aldrich] overnight at 4 °C. […] The reaction was stopped by adding SDS loading buffer and analysed by western blot: p-ENSA and GWL levels were detected using the anti-phospho(Ser67)-ENSA and anti-MASTL(GWL, Prestige) antibodies. Activity was measured as the p-ENSA/GWL ratio and % kinase activity was normalised to the DMSO control. […]
pIC50: −log10 of the molar value.
ENDPOINT_LABEL: pIC50

Test system ROCK1 (Homo sapiens); read-out pIC50; what value for NC[C@@](O)(c1ccc(Cl)cc1)c1ccc(-c2cn[nH]c2)cc1 [AT13148, reference compound] ?
~8.22
